This section presents compounds with their documented hERG current change (%, negative = inhibition) at 10uM values.
# assayed.target: human ether-à-go-go-related gene (hERG) potassium channel (human);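 further: peak tail current of the secondary pulse compared with the same well before compound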
# test.description: primary screen, population patch clamp on CHO cells stably expressing hERG; higher = less effect of the substance
Out of some 310,000 compounds screened, about 14,000 (4.5%) showed an effect of 50% or more. The effect is printed as a negative number. For the sample, strong results were picked, then their nearest neighbours and some compounds at random.
reported.property: hERG current change (%, negative = inhibition) at 10uM (%)

INSERT INTO measurements (smiles_data, assayed_target, numeric_readout) VALUES
  ('O=C(/C=C/c1ccccc1[N+](=O)[O-])N1CCN(c2ccc(F)cc2)CC1', 'human ether-à-go-go-related gene (hERG) potassium channel (human)', -56.5),
  ('O=C(/C=C/c1ccccc1[N+](=O)[O-])N1CCN(c2ccccc2F)CC1', 'human ether-à-go-go-related gene (hERG) potassium channel (human)', -13.8),
  ('O=C(/C=C/c1ccc(F)cc1)N1CCN(c2ncccn2)CC1', 'human ether-à-go-go-related gene (hERG) potassium channel (human)', 12.1),
  ('O=C(COc1c(Br)cc(Br)c2cccnc12)N1CCc2ccccc2C1', 'human ether-à-go-go-related gene (hERG) potassium channel (human)', 8.07),
  ('O=C(/C=C/c1ccccc1[N+](=O)[O-])N1CCOCC1', 'human ether-à-go-go-related gene (hERG) potassium channel (human)', 15.5),
  ('O=C(/C=C/c1cccc(F)c1)N1CCN(c2ncccn2)CC1', 'human ether-à-go-go-related gene (hERG) potassium channel (human)', 7.29),
  ('O=C(/C=C/c1ccco1)N1CCN(S(=O)(=O)c2cccs2)CC1', 'human ether-à-go-go-related gene (hERG) potassium channel (human)', -7.4),
  ('O=C(/C=C/c1ccc([N+](=O)[O-])cc1)N1CCN(S(=O)(=O)c2cccs2)CC1', 'human ether-à-go-go-related gene (hERG) potassium channel (human)', -18.7),
  ('COc1cccc(C(=O)NCCC(=O)NCc2cc(=O)n(C)c(=O)n2C)c1', 'human ether-à-go-go-related gene (hERG) potassium channel (human)', 13.9),
  ('CCn1nc(-c2ccccc2)nc2c(=O)n(C)c(=O)nc1-2', 'human ether-à-go-go-related gene (hERG) potassium channel (human)', -27.6);

====

# assayed.target: human ether-à-go-go-related gene (hERG) potassium channel (human, UniProt Q12809);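 further: peak tail current of the secondary pulse compared with the same well before compound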
# Sequence (Q12809 whole entry, looked up): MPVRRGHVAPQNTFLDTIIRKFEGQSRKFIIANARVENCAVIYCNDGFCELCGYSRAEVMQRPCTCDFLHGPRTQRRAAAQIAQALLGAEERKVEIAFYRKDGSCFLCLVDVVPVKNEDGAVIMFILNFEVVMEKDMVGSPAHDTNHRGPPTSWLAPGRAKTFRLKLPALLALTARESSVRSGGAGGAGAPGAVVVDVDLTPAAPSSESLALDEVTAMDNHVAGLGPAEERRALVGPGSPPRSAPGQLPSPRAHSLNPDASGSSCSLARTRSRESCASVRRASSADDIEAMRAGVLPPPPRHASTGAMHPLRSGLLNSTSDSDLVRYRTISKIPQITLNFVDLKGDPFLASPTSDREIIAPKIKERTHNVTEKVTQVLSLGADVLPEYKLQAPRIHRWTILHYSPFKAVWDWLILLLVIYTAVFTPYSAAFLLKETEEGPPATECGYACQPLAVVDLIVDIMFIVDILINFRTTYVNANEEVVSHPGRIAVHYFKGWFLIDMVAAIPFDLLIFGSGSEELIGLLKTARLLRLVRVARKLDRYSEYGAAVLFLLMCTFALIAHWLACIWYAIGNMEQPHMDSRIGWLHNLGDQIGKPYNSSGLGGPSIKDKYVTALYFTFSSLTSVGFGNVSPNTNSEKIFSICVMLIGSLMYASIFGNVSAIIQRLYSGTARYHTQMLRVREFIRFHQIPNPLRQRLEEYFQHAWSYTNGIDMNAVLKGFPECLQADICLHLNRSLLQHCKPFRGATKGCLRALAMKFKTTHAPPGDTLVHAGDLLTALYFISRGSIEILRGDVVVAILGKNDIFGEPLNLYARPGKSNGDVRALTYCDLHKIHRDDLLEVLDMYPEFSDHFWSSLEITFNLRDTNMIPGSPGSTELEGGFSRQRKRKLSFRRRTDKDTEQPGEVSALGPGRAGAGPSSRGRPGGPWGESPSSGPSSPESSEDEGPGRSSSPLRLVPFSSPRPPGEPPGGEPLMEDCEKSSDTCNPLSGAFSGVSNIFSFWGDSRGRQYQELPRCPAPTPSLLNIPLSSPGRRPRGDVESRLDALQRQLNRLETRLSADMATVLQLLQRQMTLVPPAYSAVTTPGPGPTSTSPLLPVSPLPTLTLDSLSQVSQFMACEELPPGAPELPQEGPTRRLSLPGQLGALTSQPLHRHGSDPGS
# test.description: primary screen, population patch clamp on CHO cells stably expressing hERG; higher = less effect of the substance
Among all 310,000 compounds or so, about 14,000 (4.5%) showed an effect of 50% or more. Effects have a minus sign here. This is one part of a sample in which strong results are shown more often than they occur.
This section presents molecules with their documented hERG current change (%, negative = inhibition) at 10uM values.
reported.property: hERG current change (%, negative = inhibition) at 10uM (%)

INSERT INTO assay_data (molecule, numeric_readout) VALUES
  ('CS(=O)(=O)Nc1cccc(C(=O)CC2(O)C(=O)Nc3ccccc32)c1 (stereo not shown)', 8.15),
  ('C=CCN1C(=O)C2(C(C(=O)c3ccc(C)o3)=C(O)C(=O)N2CCCN2CCOCC2)c2ccccc21 (stereo not shown)', 3.04),
  ('N#Cc1c(Nc2cccc(F)c2)sc2c(O)cc(=O)[nH]c12', 27.3),
  ('CCCCN(CCCC)CCNC(=O)CN1C(=O)CSc2ccc(S(=O)(=O)N3CCCCC3)cc21', -74.7),
  ('N#Cc1nc(COc2ccccc2)oc1N1CCOCC1', -19.6),
  ('CCCCN(C)CCNC(=O)CN1C(=O)CSc2ccc(S(=O)(=O)N3CCOCC3)cc21', 2.2),
  ('Cc1noc(C)c1S(=O)(=O)N1CCCC(C(=O)Nc2ccc(Cl)cn2)C1 (stereo not shown)', -26),
  ('Cc1cc(C)cc(NC(=O)CSc2nc3ccncc3[nH]2)c1', 8.99),
  ('CCCCN(C)CCNC(=O)CN1C(=O)CSc2ccc(S(=O)(=O)N3CCCC3)cc21', -3.28),
  ('CC(NC(=O)COc1ccccc1Cl)c1ccccc1 (stereo not shown)', 7.82);

====

# assayed.target: human ether-à-go-go-related gene (hERG) potassium channel (human);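 further: peak tail current of the secondary pulse compared with the same well before compound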
# test.description: primary screen, population patch clamp on CHO cells stably expressing hERG; higher = less effect of the substance
In all, about 310,000 compounds went through this assay and about 14,000 (4.5%) showed an effect of 50% or more. The effect is printed as a negative number. This is one part of a sample in which strong results are shown more often than they occur.
This section presents compounds with their documented hERG current change (%, negative = inhibition) at 10uM values.
reported.property: hERG current change (%, negative = inhibition) at 10uM (%)

INSERT INTO measurements (compound, assayed_target, numeric_readout) VALUES
  ('CCC(C)c1ccc(NC(=O)CSc2nncn2N)cc1 (stereo not shown)', 'human ether-à-go-go-related gene (hERG) potassium channel (human)', -27.5),
  ('CCC(C(=O)Nc1ccncc1)c1ccccc1 (stereo not shown)', 'human ether-à-go-go-related gene (hERG) potassium channel (human)', 0.0329),
  ('CC1=C(C(=O)Nc2ccc(C(=O)NCCCN3CCCCC3)cc2)SCCO1', 'human ether-à-go-go-related gene (hERG) potassium channel (human)', -24.8),
  ('CCN(CC(=O)NCc1cccs1)C(=O)CN(C)S(=O)(=O)c1ccc(C)cc1', 'human ether-à-go-go-related gene (hERG) potassium channel (human)', -27.3),
  ('C=CCc1ccccc1OCC(O)CN(CC)CC.Cl (stereo not shown)', 'human ether-à-go-go-related gene (hERG) potassium channel (human)', -30.5),
  ('Cc1ccc2c(c1)c(=O)c1c3n2CCN(CC2CO2)C3CC1 (stereo not shown)', 'human ether-à-go-go-related gene (hERG) potassium channel (human)', 4.27),
  ('c1ccc2nc3c(nc2c1)OCC1CCCCN31 (stereo not shown)', 'human ether-à-go-go-related gene (hERG) potassium channel (human)', -14.2),
  ('CCNC(=O)CC1C(=O)N(c2cccc(C)c2)C(=O)N1CCC(C)C (stereo not shown)', 'human ether-à-go-go-related gene (hERG) potassium channel (human)', -75),
  ('C=CCc1ccccc1OCC(O)CNC (stereo not shown)', 'human ether-à-go-go-related gene (hERG) potassium channel (human)', 12),
  ('CCC(C)N(C(=O)CN1C(=O)NC2(CCc3ccccc32)C1=O)C1CCS(=O)(=O)C1 (stereo not shown)', 'human ether-à-go-go-related gene (hERG) potassium channel (human)', -3.41),
  ('C=CCc1cc(OC)ccc1OCC(O)CN1CCN(c2ccc(OC)cc2)CC1 (stereo not shown)', 'human ether-à-go-go-related gene (hERG) potassium channel (human)', -59.7),
  ('Cc1nc2ccccc2c(=O)n1C1CCCCCC1', 'human ether-à-go-go-related gene (hERG) potassium channel (human)', -7.64),
  ('O=C(O)C1CC=C(Cl)CC1C(=O)NCc1ccccc1 (stereo not shown)', 'human ether-à-go-go-related gene (hERG) potassium channel (human)', 6.61),
  ('C=CCc1cc(C)ccc1OCC(O)CN1CCN(c2ccccc2)CC1 (stereo not shown)', 'human ether-à-go-go-related gene (hERG) potassium channel (human)', -47.5),
  ('CCNC(=O)CC1C(=O)N(c2ccccc2)C(=O)N1CCC(C)C (stereo not shown)', 'human ether-à-go-go-related gene (hERG) potassium channel (human)', 5.26),
  ('CCOC(=O)c1c(NC(=O)c2ccc(Br)o2)sc2c1CCCC2', 'human ether-à-go-go-related gene (hERG) potassium channel (human)', -9.78),
  ('O=C(N/N=C/c1ccco1)c1cc(-c2cccc3ccccc23)n[nH]1', 'human ether-à-go-go-related gene (hERG) potassium channel (human)', 7.01),
  ('CCOc1ccc(CN(C(=O)c2oc3cc(C)ccc3c2C)C2CCS(=O)(=O)C2)cc1 (stereo not shown)', 'human ether-à-go-go-related gene (hERG) potassium channel (human)', -10),
  ('C=CCc1ccccc1OCC(O)CN1CCN(c2ccc(OC)cc2)CC1.Cl (stereo not shown)', 'human ether-à-go-go-related gene (hERG) potassium channel (human)', -66.5),
  ('Nc1c2c(nc3ccc(Br)cc13)N(C1CCCCC1)CC2.O=C(O)C(=O)O', 'human ether-à-go-go-related gene (hERG) potassium channel (human)', -70.1),
  ('COc1ccc(OCC(=O)c2c(O)c3ccccc3oc2=O)cc1', 'human ether-à-go-go-related gene (hERG) potassium channel (human)', -12.4),
  ('COC(=O)c1cc(-c2ccc(Cl)cc2Cl)n[nH]1', 'human ether-à-go-go-related gene (hERG) potassium channel (human)', 14.1);

====

# assayed.target: human ether-à-go-go-related gene (hERG) potassium channel (human);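 further: peak tail current of the secondary pulse compared with the same well before compound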
# test.description: primary screen, population patch clamp on CHO cells stably expressing hERG; higher = less effect of the substance
The whole screen tested about 310,000 compounds, of which about 14,000 (4.5%) showed an effect of 50% or more. The effect is printed as a negative number. What follows is part of a selection rich in strong results, with near analogues and random picks from the rest.
reported.property: hERG current change (%, negative = inhibition) at 10uM (%)

INSERT INTO measurements (compound, numeric_readout) VALUES
  ('COc1ccc(COC(=O)C2=C(C)NC(=O)NC2c2ccc(O)c(OC)c2)cc1 (stereo not drawn)', -3.97),
  ('Cc1ccc(N2CC(C(=O)N3CCC(C(=O)NC(C)(C)C)CC3)CC2=O)cc1 (stereo not drawn)', 20.2),
  ('Cc1ccccc1C(OCCN(C)C)C1CCCCC1.O=C(O)C(=O)O (stereo not drawn)', -16.3),
  ('COc1ccc(N2CCN(CCCNC(=O)CCCn3c(=O)[nH]c4ccsc4c3=O)CC2)cc1', -9.7),
  ('COc1ccc(Cl)cc1NC(=O)CN(C)C(=O)C1CC(=O)N(Cc2ccc(C)cc2)C1 (stereo not drawn)', -50),
  ('C[C@@H]1O[C@@H](Oc2c(-c3cc(O)c(O)c(O)c3)oc3cc(O)cc(O)c3c2=O)[C@H](O)[C@H](O)[C@H]1O', 4),
  ('N#Cc1sc(C(N)=O)c(-c2ccccc2)c1-c1ccccc1', 9.86),
  ('COc1ccc(N2CCN(C(=O)CN=C3NS(=O)(=O)C(c4ccc(C)cc4)=C3C)CC2)cc1', -5.05),
  ('COc1ccc(NC(=O)CN(C)C(=O)C2CC(=O)N(Cc3ccc(C)cc3)C2)cc1 (stereo not drawn)', 4.41);
